tested on: Saccharomyces cerevisiae; experiment: Broth microdilution MIC; assay type: cell-based; conditions: Table 1 (MICs), 1 strain tested more than once (control ATCC 36375), 48 hr
Numbered stars: 1 amine (or outer) side, 2 acyl side, 3 side chain; on linkers, the order of the positions; unused ones are H or OH. Bridge positions count the residues as written; N and C are the ends. Square brackets hold non-standard residues; d marks the D form. Peptide text beside a SMILES is read from it. * marks the point of attachment. ξ: configuration not given here. ξAsp(3ξ-OH) = NC(C(=O)O)C(O)C(=O)O; X3 = O=C(C(N[*:1])C(O)CCl)[*:2]; X2 = CCCCCCCCCCCC(O)CC(=O)*; Orn = NCCC[CH](N)C(=O)O; hSer = N[CH](CCO)C(=O)O; Dab = NCC[CH](N)C(=O)O; Dhb = C/C=C(\N)C(=O)O
Measured MFC (μg/ml) range of individual entries
Could you write the number and then its unit?

C/C=C1\NC(=O)C(C(C)O)NC(=O)C(CCCN)NC(=O)C(CCO)NC(=O)CNC(=O)C(CCN)NC(=O)C(NC(=O)CC(O)CCCCCCCCCCC)COC(=O)C(C(O)CCl)NC(=O)C(C(O)C(=O)O)NC1=O (stereo not drawn) [ST-B, Syringotoxin B] (X2-S[Dab]G[hSer][Orn]T[Dhb][ξAsp(3ξ-OH)][X3]; ester 1-C; configuration not given here) ... 6.25 µg/mL
CC(=O)N1CCN(c2ccc(OCC3COC(Cn4ccnc4)(c4ccc(Cl)cc4Cl)O3)cc2)CC1 (stereo not drawn) [Ktz, ketoconazole, reference compound] ... 0.15 µg/mL

Record summary for C/C=C1\NC(=O)C(C(C)O)NC(=O)C(CCCN)NC(=O)C(CCO)NC(=O)C(CCN)NC(=O)C(CCN)NC(=O)C(NC(=O)CC(O)CCCCCCCCCCC)COC(=O)C(C(O)CCl)NC(=O)C(C(O)C(=O)O)NC1=O (stereo not drawn) [SS-A, syringostatin-A] (X2-S[Dab][Dab][hSer][Orn]T[Dhb][ξAsp(3ξ-OH)][X3]; ester 1-C; configuration not given here) : reported MFC (μg/ml) range = 2.5 µg/mL

The values you see were collected from patent US5830855A.
